Source of measurements: PubChem BioAssay

z-score by entry:
Procedure text: FRG1 promoter luciferase signal modulators, primary screen, FRG1 inhibition for FSHD, cell-based, C2C12 myotubes, firefly/Renilla luciferase, luminescence (AID 1084)
Reported conditions: higher = more signal, called active from +8 up or from −8 down

Molecule: CCCCN1CC=CC23O[C@@H]4/C=C\CCC(C)OC(=O)C4[C@H]2C(=O)N(CCCCCCO)[C@@H]3C1=O (some centres not stated)
z-score: 0.189
//
Molecule: C=CCOC(=O)[C@H]1[C@@H]2C(=O)O[C@@H](c3ccccc3)[C@@H](c3ccccc3)N2[C@@H](c2ccc(OCCOC(=O)[C@H]3C[C@H]4C(=O)N[C@@H](Cc5ccccc5)C(=O)N4[C@H]3c3cccc(OCCO)c3)cc2)[C@]12C(=O)Nc1ccc(I)cc12
z-score: 0.633
//
Molecule: COc1ccc(C(O)C2C=CC3C(=O)N(c4ccccc4)C(=O)C3N2Nc2ccccc2)cc1OCc1ccccc1 (configuration not stated)
z-score: 0.0678
//
Molecule: Cc1ccc(S[C@]2(C(=O)NC3CC3)CC(=O)N(Cc3ccccc3Cl)[C@@H]2c2ccc(CO)cc2I)cc1
z-score: -2.19
//
Molecule: CCOC(=O)C[C@H]1[C@H](OC(=O)c2ccccc2-c2ccccc2)[C@@H](NC(=O)c2ccc3ccccc3n2)c2cc(OCCCO)ccc2N1C(=O)c1ccc2ccccc2n1
z-score: 0.075
//
Molecule: C=CCNC(=O)[C@H]1[C@@H]2C(=O)O[C@@H](c3ccccc3)[C@@H](c3ccccc3)N2[C@@H](c2ccccc2OCCO)[C@]12C(=O)N(C(=O)OCCOC)c1ccc(C#CC3=CCCCC3)cc12
z-score: -1.89
//
Molecule: COCC(=C=CC[C@H](O)c1ccc(OCCO)cc1)C[C@H](O)COCc1ccccc1
z-score: 0.723
